Cited source: the supplement of paper PMC2824726

Tested on: MDA-MB-231
Experiment: shRNA barcode abundance ratio t_end/t_zero (depletion over 4 weeks of proliferation) (log2 ratio); higher = less depletion (weaker anti-proliferative effect of the shRNA)
Conditions: time after t zero 28 days
readoutName: shRNA barcode abundance ratio t end/t zero (log2)

| sequenceCode | assayResult |
| --- | --- |
| CGAGTTTGTGGACTCCTTTAA (targeted gene: BAD) | -0.185 |
| GGTCTTACTGAAGTAACACAA (targeted gene: TAX1BP1) | 0.346 |
| GGACTCTCTTCTAGAGCCATA (targeted gene: BCL2L2) | 0.635 |
| CGACTCTATCAGGGTATAAAT (targeted gene: MSH2) | 0.0312 |
| CGTGATTCTAAGAATCTCAAA (targeted gene: IL1A) | 0.666 |
| GCCTCACCAGTCCATTATTAT (targeted gene: BIRC6) | 0.259 |

* * *

shRNA barcode abundance ratio t end/t zero (log2) for assorted sequences
Test system: MDA-MB-231
Assay: shRNA barcode abundance ratio t_end/t_zero (depletion over 4 weeks of proliferation) (log2 ratio); higher = less depletion (weaker anti-proliferative effect of the shRNA)
Conditions: time after t zero 28 days
readoutName: shRNA barcode abundance ratio t end/t zero (log2)

| sequenceCode | assayResult |
| --- | --- |
| GCAAAGATCCTGATATCTTAT (targeted gene: RASA1) | 0.278 |
| CGGTTTGCTGAGGAGAAAGAA (targeted gene: AVEN) | 0.241 |
| GGTCTCCTTAGGGAACATAAA (targeted gene: ATM) | -0.27 |
| CGAACTCCTCTTCTCAGTTAA (targeted gene: IGF1R) | 0.302 |
| GCTCTGTACTTCAACCCAATT (targeted gene: BFAR) | 0.0174 |
| GCTCTTCATCAGGAGAAATAA (targeted gene: OPA1) | 0.0963 |
| CCATAGCAAGGCCTAATGTTA (targeted gene: FANCF) | 0.00383 |
| AAGCGTGCTCTCCGAAGATAA (targeted gene: SORT1) | 0.237 |
| CCTTAGCAATGTCTTAGGAAA (targeted gene: BIRC5) | -2.27 |
| GCCTACTTTCACACTAAGAAA (targeted gene: CASP8) | -0.242 |
| GCCCTGATTGTGTATATTCAT (targeted gene: BCL2) | 0.006 |
| TCCAATTAACTTCTCCATAAT (targeted gene: MTL5) | 0.712 |
| CCTGTTATCAATCTGCTAAAT (targeted gene: FOXO1) | 0.0156 |
| CGGAGAGTTATCCTGATAAAT (targeted gene: SFRP1) | -0.114 |
| GGCATTAGTTTCTCAGTTAAA (targeted gene: MLH1) | 0.141 |
| CCATGTAATGGCAGTTATATT (targeted gene: HMGB1) | 0.175 |
| CCAAATTGTGTTTGATGGATT (targeted gene: ESR1) | 0.202 |
| CCAGAGAATTTGCTTACCAAA (targeted gene: RALBP1) | 0.116 |
| CCCTGAGACCATATCCTTAAA (targeted gene: OPA1) | -0.115 |
| CCCGTATGTGTCAACACCTAT (targeted gene: CRTAC1) | -0.136 |
| GGACAAAGTTTACCAAATGAA (targeted gene: CASP8) | 0.402 |
| CGCTACTTCCTCCTCAAGAAT (targeted gene: AKT1) | 0.372 |
| TCACAGAGCTTTGTAAGCAAA (targeted gene: NME5) | 0.139 |
| GCACCTAGTGTCCAGATTCAT (targeted gene: HDAC3) | 0.129 |
| CCATTTACAGCCATTTCTAAA (targeted gene: ESR1) | 0.128 |
| GCTGTGAGTTCTGATAGGAAT (targeted gene: XIAP) | -0.186 |
